These entries and their values trace back to patent US9562035B2.

# Tested on: A2780 ovarian cells
# measurement.protocol: A2780 Ovarian Cell Proliferation Assay in Lipid Reduced Medium, without Palmitate
# Assay type: cell-based
# study.conditions: Homo sapiens, A2780; lipid reduced medium, without palmitate, 96 h, MTT; read-out: Proliferation A2780 w/o Palmitate pIC50 (converted)
measured.parameter: IC50 (nM)

Complete the entry with IC50 for CC(C)Nc1ccc(C(=O)Nc2cc(C(=O)N3CCC(c4ccc(-c5ccc6cnccc6c5)cc4)CC3)ccc2Cl)cn1 234

1. CN(C)c1ccc(C(=O)N2CCC(c3ccc(-c4cnn(C)c4)cc3)CC2)cc1NC(=O)c1ccc(Cl)nc1
2. Cc1ccc(C(=O)N2CCC(c3ccc(-c4cnn(C)c4)cc3)CC2)cc1NC(=O)C1CN(CCC(C)C)C1
3. Cc1ccc(C(=O)N2CC[C@H](c3ccc(-c4ccnn4C)cc3)[C@@H](C)C2)cc1NC(=O)c1ccc(Cl)nc1 (racemic)
Hello, I need these entries ordered by IC50, highest reading first. Thanks! Please list each label once, in the requested order. 3, 1, 2
(3: 174 nM, 1: 100 nM, 2: 64.6 nM)
